Target: human FGFR1 kinase (human, UniProt P11362 398-822, limits assumed)
Sequence (P11362 398-822 limits assumed): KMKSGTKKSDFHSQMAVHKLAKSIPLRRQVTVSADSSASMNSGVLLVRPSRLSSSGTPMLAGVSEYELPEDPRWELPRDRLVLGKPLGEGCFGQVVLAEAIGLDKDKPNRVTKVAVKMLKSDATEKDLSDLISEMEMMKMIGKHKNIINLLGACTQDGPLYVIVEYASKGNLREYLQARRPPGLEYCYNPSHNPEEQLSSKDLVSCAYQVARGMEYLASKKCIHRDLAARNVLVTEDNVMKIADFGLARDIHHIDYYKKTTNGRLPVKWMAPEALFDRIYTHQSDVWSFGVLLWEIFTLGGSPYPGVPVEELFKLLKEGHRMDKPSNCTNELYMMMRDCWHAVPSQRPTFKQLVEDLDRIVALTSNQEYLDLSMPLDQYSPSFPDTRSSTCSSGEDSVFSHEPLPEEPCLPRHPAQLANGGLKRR
Test: cell-based or functional assay
*: point of attachment. Palmitoyl = CCCCCCCCCCCCCCCC(=O)*
assay-readout: FGFR1 Kinase % Inhibition (%)
Numeric only. Scale: %

Known results for binders:
binder="Palmitoyl-KFNLALGNYKKP-NH2 (SMILES CCCCCCCCCCCCCCCC(=O)N[C@@H](CCCCN)C(=O)N[C@@H](Cc1ccccc1)C(=O)N[C@@H](CC(N)=O)C(=O)N[C@@H](CC(C)C)C(=O)N[C@@H](C)C(=O)N[C@@H](CC(C)C)C(=O)NCC(=O)N[C@@H](CC(N)=O)C(=O)N[C@@H](Cc1ccc(O)cc1)C(=O)N[C@@H](CCCCN)C(=O)N[C@@H](CCCCN)C(=O)N1CCC[C@H]1C(N)=O) [Peptide 5: Palm-Lys-Phe-Asn-Leu-Ala-Leu-Gly-Asn-Tyr-Lys-Lys-Pro-NH2]" unit_name=% quantitative_result=0
binder="Palmitoyl-KFNLPLGNYAKP-NH2 (SMILES CCCCCCCCCCCCCCCC(=O)N[C@@H](CCCCN)C(=O)N[C@@H](Cc1ccccc1)C(=O)N[C@@H](CC(N)=O)C(=O)N[C@@H](CC(C)C)C(=O)N1CCC[C@H]1C(=O)N[C@@H](CC(C)C)C(=O)NCC(=O)N[C@@H](CC(N)=O)C(=O)N[C@@H](Cc1ccc(O)cc1)C(=O)N[C@@H](C)C(=O)N[C@@H](CCCCN)C(=O)N1CCC[C@H]1C(N)=O) [Peptide 10: Palm-Lys-Phe-Asn-Leu-Pro-Leu-Gly-Asn-Tyr-Ala-Lys-Pro-NH2]" unit_name=% quantitative_result=0
binder="Palmitoyl-KFNLPLGNAKKP-NH2 (SMILES CCCCCCCCCCCCCCCC(=O)N[C@@H](CCCCN)C(=O)N[C@@H](Cc1ccccc1)C(=O)N[C@@H](CC(N)=O)C(=O)N[C@@H](CC(C)C)C(=O)N1CCC[C@H]1C(=O)N[C@@H](CC(C)C)C(=O)NCC(=O)N[C@@H](CC(N)=O)C(=O)N[C@@H](C)C(=O)N[C@@H](CCCCN)C(=O)N[C@@H](CCCCN)C(=O)N1CCC[C@H]1C(N)=O) [Peptide 9: Palm-Lys-Phe-Asn-Leu-Pro-Leu-Gly-Asn-Ala-Lys-Lys-Pro-NH2]" unit_name=% quantitative_result=15.7
binder="Palmitoyl-KFNLPLGNYKKP-NH2 (SMILES CCCCCCCCCCCCCCCC(=O)N[C@@H](CCCCN)C(=O)N[C@@H](Cc1ccccc1)C(=O)N[C@@H](CC(N)=O)C(=O)N[C@@H](CC(C)C)C(=O)N1CCC[C@H]1C(=O)N[C@@H](CC(C)C)C(=O)NCC(=O)N[C@@H](CC(N)=O)C(=O)N[C@@H](Cc1ccc(O)cc1)C(=O)N[C@@H](CCCCN)C(=O)N[C@@H](CCCCN)C(=O)N1CCC[C@H]1C(N)=O) [Peptide 1: Palm-Lys-Phe-Asn-Leu-Pro-Leu-Gly-Asn-Tyr-Lys-Lys-Pro-NH2]" unit_name=% quantitative_result=0

API: the following record is the query input.
Can you look up the measured FGFR1 Kinase % Inhibition of Palmitoyl-KFNLPLGNYKAP-NH2 (SMILES CCCCCCCCCCCCCCCC(=O)N[C@@H](CCCCN)C(=O)N[C@@H](Cc1ccccc1)C(=O)N[C@@H](CC(N)=O)C(=O)N[C@@H](CC(C)C)C(=O)N1CCC[C@H]1C(=O)N[C@@H](CC(C)C)C(=O)NCC(=O)N[C@@H](CC(N)=O)C(=O)N[C@@H](Cc1ccc(O)cc1)C(=O)N[C@@H](CCCCN)C(=O)N[C@@H](C)C(=O)N1CCC[C@H]1C(N)=O) [Peptide 11: Palm-Lys-Phe-Asn-Leu-Pro-Leu-Gly-Asn-Tyr-Lys-Ala-Pro-NH2] for me? 0
